Data credit: PubChem BioAssay AID1963871

Below is a list of entries, each paired with its recorded viability, T/C value.
test system: KRAS-mutant PDC multicell tumor spheroid viability; assay: Anticancer human tumor 521955-158-R2-J5-PDC patient-derived pancreatic carcinoma cell line growth inhibition [KRAS2]; conditions: second compound 3.16 µM; first compound 3.16 µM; hits give low values
readout: viability, T/C (%)

[[record]]
molecule = "Cn1nccc1Nc1nccc(-c2cc3c(s2)C(C)(C)N(CCN2CCOCC2)C3=O)n1 + C=CC(=O)N1CCN(c2nc(OCC3CCCN3C)nc3c2CCN(c2cccc4cccc(C)c24)C3)CC1CC#N"
readout = "viability, T/C"
readout_value = 0.55

[[record]]
molecule = "Cn1nccc1Nc1nccc(-c2cc3c(s2)C(C)(C)N(CCN2CCOCC2)C3=O)n1 + CC1OCC2(CCN(c3cnc(Sc4ccnc(N)c4Cl)c(N)n3)CC2)C1N"
readout = "viability, T/C"
readout_value = 23.3

[[record]]
molecule = "CC(C)NCC(C(=O)N1CCN(c2ncnc3c2C(C)CC3O)CC1)c1ccc(Cl)cc1 (configuration not stated) + C=CC(=O)N1CCN(c2nc(OCC3CCCN3C)nc3c2CCN(c2cccc4cccc(C)c24)C3)CC1CC#N"
readout = "viability, T/C"
readout_value = 3.96

[[record]]
molecule = "O=C(c1cc(Cc2n[nH]c(=O)c3ccccc23)ccc1F)N1CCN(C(=O)C2CC2)CC1 + CNCc1ccccc1-c1csc(C(C)Nc2nc(C)nc3cc(OC)c(OC)cc23)c1"
readout = "viability, T/C"
readout_value = 0.18

[[record]]
molecule = "CC(C)NCC(C(=O)N1CCN(c2ncnc3c2C(C)CC3O)CC1)c1ccc(Cl)cc1 (configuration not stated) + COc1cc2nc(C)nc(NC(C)c3cc(N)cc(C(F)(F)F)c3)c2cc1OC1CCOC1"
readout = "viability, T/C"
readout_value = 59.4

[[record]]
molecule = "COc1cc(Nc2ncc3c(n2)-c2ccc(Cl)cc2C(c2c(F)cccc2OC)=NC3)ccc1C(=O)O + COc1cc2nc(C)nc(NC(C)c3cc(N)cc(C(F)(F)F)c3)c2cc1OC1CCOC1"
readout = "viability, T/C"
readout_value = 30.1

[[record]]
molecule = "COc1cc(Nc2ncc3c(n2)-c2ccc(Cl)cc2C(c2c(F)cccc2OC)=NC3)ccc1C(=O)O + C=CC(=O)N1CCN(c2nc(OCC3CCCN3C)nc3c2CCN(c2cccc4cccc(C)c24)C3)CC1CC#N"
readout = "viability, T/C"
readout_value = 1.44


###

test system: KRAS-mutant PDC multicell tumor spheroid viability; experiment: Anticancer human tumor 521955-158-R2-J5-PDC cell line growth inhibition [KRAS2]; conditions: second compound 0.1 µM; first compound 0.0316 µM; hits give low values;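 note: viability read after seven days of drug exposure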
Below is a list of entries, each paired with its recorded viability, T/C value.
readout: viability, T/C (%)

[[record]]
molecule = "CN(C)C/C=C/C(=O)Nc1cc2c(Nc3ccc(F)c(Cl)c3)ncnc2cc1O[C@H]1CCOC1 + C=CC(=O)N1CCN(c2nc(=O)n(-c3c(C)ccnc3C(C)C)c3nc(-c4c(O)cccc4F)c(F)cc23)C(C)C1"
readout_value = 98.6

[[record]]
molecule = "CC(=O)OC12COC1CC(O)C1(C)C(=O)C(O)C3=C(C)C(OC(=O)C(O)C(NC(=O)OC(C)(C)C)c4ccccc4)CC(O)(C(OC(=O)c4ccccc4)C21)C3(C)C (stereo not given) + C=CC(=O)N1CCN(c2nc(=O)n(-c3c(C)ccnc3C(C)C)c3nc(-c4c(O)cccc4F)c(F)cc23)C(C)C1"
readout_value = 15.5

[[record]]
molecule = "COc1cc2nccc(Oc3ccc(NC(=O)C4(C(=O)Nc5ccc(F)cc5)CC4)cc3)c2cc1OC + CNCc1ccccc1-c1csc(C(C)Nc2nc(C)nc3cc(OC)c(OC)cc23)c1"
readout_value = 92.7

[[record]]
molecule = "COc1cc2nccc(Oc3ccc(NC(=O)C4(C(=O)Nc5ccc(F)cc5)CC4)cc3)c2cc1OC + COc1cc2nc(C)nc(NC(C)c3cc(N)cc(C(F)(F)F)c3)c2cc1OC1CCOC1"
readout_value = 93.7

[[record]]
molecule = "CCNC(=O)CC1N=C(c2ccc(Cl)cc2)c2cc(OC)ccc2-n2c(C)nnc21 (stereo not given) + COc1cc2nc(C)nc(NC(C)c3cc(N)cc(C(F)(F)F)c3)c2cc1OC1CCOC1"
readout_value = 90


###

tested on: KRAS-mutant PDC multicell tumor spheroid viability; assay: Anticancer human tumor 521955-158-R2-J5-PDC cell line growth inhibition [KRAS2]; conditions: second compound 3.16 µM; first compound 0.1 µM; active = viability on the fitted dose curve at most 10% of control; inactive = the rest;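 note: viability read after seven days of drug exposure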
Labels: class 1 = active, class 0 = inactive

[[record]]
compound = "Cn1ncnc1[C@H]1c2n[nH]c(=O)c3cc(F)cc(c23)N[C@@H]1c1ccc(F)cc1 + C=CC(=O)N1CCN(c2nc(=O)n(-c3c(C)ccnc3C(C)C)c3nc(-c4c(O)cccc4F)c(F)cc23)C(C)C1"
assayed_target = "KRAS-mutant PDC multicell tumor spheroid viability"
group = "class 0"

[[record]]
compound = "O=C(c1cc(Cc2n[nH]c(=O)c3ccccc23)ccc1F)N1CCN(C(=O)C2CC2)CC1 + COc1cc2nc(C)nc(NC(C)c3cc(N)cc(C(F)(F)F)c3)c2cc1OC1CCOC1"
assayed_target = "KRAS-mutant PDC multicell tumor spheroid viability"
group = "class 0"

[[record]]
compound = "CC(=O)OC12COC1CC(O)C1(C)C(=O)C(O)C3=C(C)C(OC(=O)C(O)C(NC(=O)OC(C)(C)C)c4ccccc4)CC(O)(C(OC(=O)c4ccccc4)C21)C3(C)C (stereo not given) + C=CC(=O)N1CCN(c2nc(OCC3CCCN3C)nc3c2CCN(c2cccc4cccc(C)c24)C3)CC1CC#N"
assayed_target = "KRAS-mutant PDC multicell tumor spheroid viability"
group = "class 0"

[[record]]
compound = "COc1cc2nccc(Oc3ccc(NC(=O)C4(C(=O)Nc5ccc(F)cc5)CC4)cc3)c2cc1OC + CC1OCC2(CCN(c3cnc(Sc4ccnc(N)c4Cl)c(N)n3)CC2)C1N"
assayed_target = "KRAS-mutant PDC multicell tumor spheroid viability"
group = "class 0"

[[record]]
compound = "CCNC(=O)CC1N=C(c2ccc(Cl)cc2)c2cc(OC)ccc2-n2c(C)nnc21 (stereo not given) + COc1cc2nc(C)nc(NC(C)c3cc(N)cc(C(F)(F)F)c3)c2cc1OC1CCOC1"
assayed_target = "KRAS-mutant PDC multicell tumor spheroid viability"
group = "class 0"

[[record]]
compound = "CCN1CCN(Cc2ccc(Nc3ncc(F)c(-c4cc(F)c5nc(C)n(C(C)C)c5c4)n3)nc2)CC1 + COc1cc2nc(C)nc(NC(C)c3cc(N)cc(C(F)(F)F)c3)c2cc1OC1CCOC1"
assayed_target = "KRAS-mutant PDC multicell tumor spheroid viability"
group = "class 0"

[[record]]
compound = "COc1cc(Nc2ncc3c(n2)-c2ccc(Cl)cc2C(c2c(F)cccc2OC)=NC3)ccc1C(=O)O + C=CC(=O)N1CCN(c2nc(OCC3CCCN3C)nc3c2CCN(c2cccc4cccc(C)c24)C3)CC1CC#N"
assayed_target = "KRAS-mutant PDC multicell tumor spheroid viability"
group = "class 1"

[[record]]
compound = "CC1COCCN1c1cc(-c2ccnn2C)c2ccnc(-c3ccn[nH]3)c2n1 (stereo not given) + CNCc1ccccc1-c1csc(C(C)Nc2nc(C)nc3cc(OC)c(OC)cc23)c1"
assayed_target = "KRAS-mutant PDC multicell tumor spheroid viability"
group = "class 1"

[[record]]
compound = "CC(=O)OC12COC1CC(O)C1(C)C(=O)C(O)C3=C(C)C(OC(=O)C(O)C(NC(=O)OC(C)(C)C)c4ccccc4)CC(O)(C(OC(=O)c4ccccc4)C21)C3(C)C (stereo not given) + C=CC(=O)N1CCN(c2nc(=O)n(-c3c(C)ccnc3C(C)C)c3nc(-c4c(O)cccc4F)c(F)cc23)C(C)C1"
assayed_target = "KRAS-mutant PDC multicell tumor spheroid viability"
group = "class 0"

[[record]]
compound = "CC(C)n1nc(-c2ccc3oc(N)nc3c2)c2c(N)ncnc21 + CC1OCC2(CCN(c3cnc(Sc4ccnc(N)c4Cl)c(N)n3)CC2)C1N"
assayed_target = "KRAS-mutant PDC multicell tumor spheroid viability"
group = "class 0"


###

system: KRAS-mutant PDC multicell tumor spheroid viability; assay: Anticancer human tumor 521955-158-R2-J5-PDC cell line growth inhibition [KRAS2]; conditions: second compound 1 µM; first compound 0.316 µM; hits give low values;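 note: viability read after seven days of drug exposure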
readout: viability, T/C (%)

[[record]]
compound = "COc1cc(Nc2ncc3c(n2)-c2ccc(Cl)cc2C(c2c(F)cccc2OC)=NC3)ccc1C(=O)O + CC1OCC2(CCN(c3cnc(Sc4ccnc(N)c4Cl)c(N)n3)CC2)C1N"
readout_value = 38.1

[[record]]
compound = "CCN1CCN(Cc2ccc(Nc3ncc(F)c(-c4cc(F)c5nc(C)n(C(C)C)c5c4)n3)nc2)CC1 + C=CC(=O)N1CCN(c2nc(OCC3CCCN3C)nc3c2CCN(c2cccc4cccc(C)c24)C3)CC1CC#N"
readout_value = 84.6

[[record]]
compound = "O=C(c1cc(Cc2n[nH]c(=O)c3ccccc23)ccc1F)N1CCN(C(=O)C2CC2)CC1 + CC1OCC2(CCN(c3cnc(Sc4ccnc(N)c4Cl)c(N)n3)CC2)C1N"
readout_value = 92.3

[[record]]
compound = "CC(=O)OC12COC1CC(O)C1(C)C(=O)C(O)C3=C(C)C(OC(=O)C(O)C(NC(=O)OC(C)(C)C)c4ccccc4)CC(O)(C(OC(=O)c4ccccc4)C21)C3(C)C (stereo unspecified) + CC1OCC2(CCN(c3cnc(Sc4ccnc(N)c4Cl)c(N)n3)CC2)C1N"
readout_value = 13.1

[[record]]
compound = "CC1OCC2(CCN(c3cnc(Sc4ccnc(N)c4Cl)c(N)n3)CC2)C1N (stereo unspecified) + C=CC(=O)N1CCN(c2nc(OCC3CCCN3C)nc3c2CCN(c2cccc4cccc(C)c24)C3)CC1CC#N"
readout_value = 59.2

[[record]]
compound = "COc1cc2nccc(Oc3ccc(NC(=O)C4(C(=O)Nc5ccc(F)cc5)CC4)cc3)c2cc1OC + COc1cc2nc(C)nc(NC(C)c3cc(N)cc(C(F)(F)F)c3)c2cc1OC1CCOC1"
readout_value = 96.6

